# Test system: Escherichia coli TOP10;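 note: peptides expressed intracellularly from a pBAD plasmid library in pooled LB shake-flask culture, induced with 0.3% L-arabinose, DNA abundance read by NGS, three biological replicates, DESeq2 with apeglm shrinkage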
# PROTOCOL_NOTES: shrunken log2 fold change of peptide-encoding DNA abundance (4.5 h post-induction vs induction); higher = less antimicrobial activity (less host growth inhibition)
# CONDITION_SUMMARY: time post-induction: 4.5 h; library: site-saturation at positions 5, 18, 19, 20
MEASUREMENT_NAME: shrunken log2 fold change

SEQUENCE_CHAIN	TESTED_ON	MEASUREMENT_NAME	RECORDED_VALUE
RRIRGRPPRLPRPRPRPRRCPRP	Escherichia coli TOP10	shrunken log2 fold change	0.548
RRIRKRPPRLPRPRPRPKPNPRP	Escherichia coli TOP10	shrunken log2 fold change	0.516
RRIRLRPPRLPRPRPRPMWKPRP	Escherichia coli TOP10	shrunken log2 fold change	-0.0297
RRIRWRPPRLPRPRPRPDRSPRP	Escherichia coli TOP10	shrunken log2 fold change	0.0405
RRIRLRPPRLPRPRPRPGTLPRP	Escherichia coli TOP10	shrunken log2 fold change	0.0174
RRIRSRPPRLPRPRPRPPHFPRP	Escherichia coli TOP10	shrunken log2 fold change	0.503
RRIRARPPRLPRPRPRPISPPRP	Escherichia coli TOP10	shrunken log2 fold change	-0.141
RRIRVRPPRLPRPRPRPFIGPRP	Escherichia coli TOP10	shrunken log2 fold change	-0.291
